Test: Photo stability: effect of solar simulating UV irradiation on SPF values of sunscreens
Type: physicochemical
Settings: UV (66% UVA + 33% UVB) 3.0 J/cm^2 (20 min); fifty μM solution
The label is Condition met for SPF after UV irradiation below 5 and Condition not met for SPF after UV irradiation equal to or exceeding 5.

compound | class_label
COc1cc(/C=C/C(=O)O)ccc1O [trans-Ferulic acid] | Condition met
C[C@@H]1O[C@@H](O[C@@H]2[C@@H](O)[C@H](OCCc3ccc(O)c(O)c3)O[C@H](CO)[C@H]2OC(=O)/C=C/c2ccc(O)c(O)c2)[C@H](O)[C@H](O)[C@H]1O [Verbascoside] | Condition not met
O=c1cc(-c2ccccc2)oc2cc(O)c(O)c(O)c12 | Condition met
O=C1c2c(O)cc(O)cc2O[C@H](c2ccc(O)c(O)c2)[C@H]1O | Condition not met
